Tested on: T98G
measurement-notes: Cytotoxicity against human T98G cells assessed as growth inhibition by colorimetric sulphorhodamine B assay
Type: functional, cell-based

# molecule, measured-target, unit-of-measure, IC50
measured = [
    ("CC1=C2C[C@H]3O[C@@]3(C)[C@@H]2[C@H]2OC(=O)[C@@H](CNCc3cn(-c4ccc(C)c(C)c4)nn3)[C@@H]2CC1", "T98G", "µM", 12),
    ("CC1=C2C[C@H]3O[C@@]3(C)[C@@H]2[C@H]2OC(=O)[C@@H](CNCc3cn(-c4cc(Cl)c(Cl)cc4Cl)nn3)[C@@H]2CC1", "T98G", "µM", 17),
    ("C=C1C(=O)O[C@H]2[C@H]1CCC(C)=C1C[C@H]3O[C@@]3(C)[C@@H]12 [LUDARTIN]", "T98G", "µM", 6.3),
    ("CC1=C2C[C@H]3O[C@@]3(C)[C@@H]2[C@H]2OC(=O)[C@@H](CNCc3cn(-c4ccc(Br)cc4)nn3)[C@@H]2CC1", "T98G", "µM", 52),
    ("CC1=C2C[C@H]3O[C@@]3(C)[C@@H]2[C@H]2OC(=O)[C@@H](CNCc3cn(-c4ccccc4)nn3)[C@@H]2CC1", "T98G", "µM", 21),
]

* * *

Catalogue of inhibition of growth at 50 µM values
System: HCT-116
measurement-notes: Cytotoxicity against human HCT116 cells assessed as growth inhibition at 50 uM by colorimetric sulphorhodamine B assay
Assay type: functional
stated-conditions: read-out: GI

# structure-notation, measured-target, inhibition of growth at 50 µM / %
data = [
    ("CC1=C2C[C@H]3O[C@@]3(C)[C@@H]2[C@H]2OC(=O)[C@@H](CNCc3cn(-c4cccc(C#N)c4)nn3)[C@@H]2CC1", "HCT-116", 0),
    ("CC1=C2C[C@H]3O[C@@]3(C)[C@@H]2[C@H]2OC(=O)[C@@H](CNCc3cn(-c4cccc([N+](=O)[O-])c4)nn3)[C@@H]2CC1", "HCT-116", 0),
    ("CC1=C2C[C@H]3O[C@@]3(C)[C@@H]2[C@H]2OC(=O)[C@@H](CNCc3cn(-c4ccccc4Br)nn3)[C@@H]2CC1", "HCT-116", 79),
    ("CC1=C2C[C@H]3O[C@@]3(C)[C@@H]2[C@H]2OC(=O)[C@@H](CNCc3cn(-c4ccccc4C#N)nn3)[C@@H]2CC1", "HCT-116", 20),
    ("CC1=C2C[C@H]3O[C@@]3(C)[C@@H]2[C@H]2OC(=O)[C@@H](CNCc3cn(-c4ccc(C#N)cc4)nn3)[C@@H]2CC1", "HCT-116", 0),
    ("CC1=C2C[C@H]3O[C@@]3(C)[C@@H]2[C@H]2OC(=O)[C@@H](CNCc3cn(-c4ccc(Br)cc4)nn3)[C@@H]2CC1", "HCT-116", 72),
    ("COc1ccc(-n2cc(CNC[C@@H]3C(=O)O[C@H]4[C@H]3CCC(C)=C3C[C@H]5O[C@@]5(C)[C@@H]34)nn2)cc1", "HCT-116", 0),
]

These entries and their values trace back to ChEMBL document CHEMBL3112404.
